- tested-system: acetylcholine receptor
- assay-notes: SPR, AchR immobilised on CM5 chip, peptide 10 uM
attribute-measured: Binding affinity (RU)

(A) KIWFRR [6mer-2-655]
(B) KNHGKR [6mer-2-680]
Hi, I'm comparing two records. Which one has the lower Binding affinity (RU), A or B ? Reply briefly: the label of your chosen item.
B

(1) RKEMPR [6mer-1-949]
(2) RKPAGK [6mer-1-944]
Hi, I'm comparing two records. Which one has the lower Binding affinity (RU), 1 or 2 ? Reply briefly: the label of your chosen item.
2
(2: 25 RU, 1: 37 RU)
